# Tested on: brains, heart, liver, muscle, and DRG of the NHPs
# protocol.text: Maturation of TTM-001 and TTM-002 capsids, NGS enrichment in NHP tissues
# Assay type: in vivo
# condition: NGS fold-enrichment, RNA, brain of NHPs, relative to AAV9 control
metric.name: Fold Enrichment relative to AAV9, Brain (NHP) (fold)
Note: unit fold is implicit; provide only the numeric part.

Worked cases, Fold Enrichment relative to AAV9, Brain (NHP) given:
>>> df
     sequence_content                               test_target  observed_result
0  KTEKTSGSPHSKAQNQQT  brains, heart, liver, muscle, and DRG of the NHPs          120.337
1  KTINGTGSPHSKAQNQQM  brains, heart, liver, muscle, and DRG of the NHPs           62.151
2  KTINGSGSPHSKAQYQHA  brains, heart, liver, muscle, and DRG of the NHPs           64.435

Ask | Request the reported Fold Enrichment relative to AAV9, Brain (NHP) associated with KTERTSGSPHSKAQNQQT
Reply | 112.957

Ask | Same question, KNCLGSGSPHSKAQNQQT this time
Reply | 61.442

Ask | Okay, and KTEKVSGSPHSKAQNQQT ?
Reply | 84.558

Ask | Also, KTENVSGSPHSKAQNQQT please.
Reply | 88.506

Ask | Okay, and KTIPIDGSPHSKAQNQQT ?
Reply | 64.421

Ask | Same question, KTVIGSGSPHSKALNQQT this time
Reply | 62.358

Ask | Same thing, different sequence: KTCNKSGSPHSKAQNQQT
Reply | 83.992

Ask | Could you do the same for KTERASGSPHSKAQNQQT , please?
Reply | 103.669

Ask | Next entry: KTINGGGSPHSKAQDKQT
Reply | 59.322

Ask | What would you report for KTVNRNGSPHSKAQNQQT ?
Reply | 133.016

Ask | What do we get for KTDKVSGSPHSKAQNQQT ?
Reply | 60.935

Ask | KTENLSGSPHSKAQNQQT ?
Reply | 70.303

Ask | // next record KTINGSGSPHSKAQHRIT
Reply | 76.849

Ask | Moving on to KTINGSGSPHSKAQKLNT
Reply | 67.782

* * *

Each item that follows carries a reported Fold enrichment over AAV9 in the brain of NHPs.
# Test system: brain, spinal cord, and DRG of the NHPs
# protocol.text: NGS fold enrichment of synthetic library (passage 3) in NHPs, first cross-species screen
# Assay type: in vivo, cynomolgus macaques (Macaca fascicularis)
# condition: synthetic library passage 3, intravenous, RNA from brain of NHPs, NGS, relative to wild-type AAV9
Write it as a number; the unit fold goes unstated.

Before answering, review these 2 worked examples.
   sequence_content                              test_target  observed_result
0    GSEQTRQSGQNQQT  brain, spinal cord, and DRG of the NHPs            1.321
1    GSGQNQQGTGVSHT  brain, spinal cord, and DRG of the NHPs            1.371

Ask | Suppose we examine the sequence GRLSNAHGGQNQQT ; what Fold enrichment over AAV9 in the brain of NHPs value has been reported?
Reply | 1.245

Ask | Follow-up entry: GSGQDVTKTGNQQT
Reply | 1.173

Ask | Next sequence: GDSSSRISGQNQQT
Reply | 1.151

Ask | Input GSGQNQKGMQPNQT
Reply | 1.326

Ask | What about this sequence? GTTAHQPSGQNQQT
Reply | 1.138

Ask | What do we get for GSGYVITGSQNQQT ?
Reply | 1.125

Ask | Entry to check: GSGQNQQTSHFPSA
Reply | 1.185

Ask | For GSGQNLHSGLPQQT then?
Reply | 1.363

Ask | Can you check GSGQREPKASNQQT next?
Reply | 1.214

Ask | What do you get for GSGQNQQLKNSTST ?
Reply | 1.235

Ask | Same lookup for GSSVGVPSGQNQQT , please.
Reply | 1.322

Ask | Would you kindly repeat that for GSGQSTLKRINQQT ?
Reply | 1.168

Ask | Would you kindly repeat that for GSGQHLPLLGNQQT ?
Reply | 1.175

Ask | Continue with GCTTRLNSGQNQQT
Reply | 1.276

Ask | Would you mind doing GSGRHLASVQNQQT as well?
Reply | 1.187
